Conditions: in methanol, 323.35 K
property.label: solubility (mole fraction)
Please respond with just the number, no unit label.

Request: Given the compound COC(=O)/C=C(\C)N[C@@H](C(=O)[O-])c1ccc(O)cc1.[K+] , what is its reported solubility (mole fraction)?
Result: 0.00519

----------
Conditions: in 2-pentanol, 328.34 K
property.label: solubility (mole fraction)
Please respond with just the number, no unit label.

Request: Given the compound COC(=O)/C=C(\C)N[C@@H](C(=O)[O-])c1ccc(O)cc1.[K+] , what is its reported solubility (mole fraction)?
Result: 0.000233

----------
Settings: in n-pentanol, 328.17 K
property.label: solubility (mole fraction)

Request: Given the compound COC(=O)/C=C(\C)N[C@@H](C(=O)[O-])c1ccc(O)cc1.[K+] , what is its reported solubility (mole fraction)?
Result: 0.000209

These data points were gathered from BigSolDB 2.1.
